target: GST fusion protein containing the Met kinase domain (Homo sapiens); construct: Purified GST fusion protein containing the Met kinase domain, Sugen, Inc; test: MET Transphosphorylation Assay (ELISA, poly(Glu,Tyr) 4:1 substrate); conditions: met transphosphorylation of poly(glutamic acid:tyrosine 4:1) substrate; two values in a cell separated by '/'
EXPERIMENTAL READOUT: IC50 (nM)
Numeric answer only, unit nM assumed.

Entry O=C(Cc1ccc(O)cc1)N/N=C1\C(=O)Nc2c(Cl)cc(Cl)cc21 [II-61] , tested on GST fusion protein containing the Met kinase domain (Homo sapiens), has a reported IC50 of 88

Item: O=C(Cc1ccc(O)cc1)N/N=C1\C(=O)Nc2c(Cl)cccc21 [II-36] | System: GST fusion protein containing the Met kinase domain (Homo sapiens) | IC50: 22

Value (IC50, GST fusion protein containing the Met kinase domain (Homo sapiens)) for record O=C(CCc1ccc(O)cc1)N/N=C1\C(=O)Nc2c(Cl)ccc(Cl)c21 [II-76] = 46

====

target: GST fusion protein containing the Met kinase domain (Homo sapiens, UniProt P08581); construct: Purified GST fusion protein containing the Met kinase domain, Sugen, Inc; assay: MET Transphosphorylation Assay (ELISA, poly(Glu,Tyr) 4:1 substrate); conditions: met transphosphorylation of poly(glutamic acid:tyrosine 4:1) substrate; two values in a cell separated by '/'
Sequence (P08581 1078-1345 limits assumed): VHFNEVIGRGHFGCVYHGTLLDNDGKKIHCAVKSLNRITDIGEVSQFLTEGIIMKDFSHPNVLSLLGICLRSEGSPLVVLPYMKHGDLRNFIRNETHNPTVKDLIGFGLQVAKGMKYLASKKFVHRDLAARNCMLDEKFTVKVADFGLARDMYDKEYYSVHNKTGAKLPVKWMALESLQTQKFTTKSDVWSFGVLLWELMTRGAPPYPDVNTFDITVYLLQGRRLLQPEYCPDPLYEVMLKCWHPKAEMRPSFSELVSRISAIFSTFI
Assign pIC50 to each entry below.
Please note pIC50 is a logarithmic value: minus log10 of concentration in mol/L. Answer with that number alone.

// sample CC(C(=O)N/N=C1\C(=O)Nc2ccc(C(=O)O)c(Cl)c21)c1ccc(F)cc1 (stereo not drawn) , its pIC50 was 6.64

The compound identified as CC(C(=O)N/N=C1\C(=O)Nc2ccc(Cl)c(Cl)c21)c1ccc(O)cc1 (stereo not drawn) registered its pIC50 at 7.66

Kindly note the recorded pIC50 for `O=C(Cc1ccc(O)cc1)N/N=C1\C(=O)Nc2ccc(C(=O)O)cc21` , which is 6.05

According to the records, this compound `O=C(Cc1ccc(O)cc1)N/N=C1\C(=O)Nc2c(Cl)ccc(Cl)c21` displays pIC50 of 7.89

Entry CC(C(=O)N/N=C1\C(=O)Nc2c(Cl)ccc(Cl)c21)c1ccc2c(c1)OCO2 (stereo not drawn) ; pIC50 = 6.59

Record `O=C(Cc1ccc2c(c1)OCO2)N/N=C1\C(=O)Nc2c(Cl)ccc(Cl)c21` . Reported pIC50: 6.96

The recorded pIC50 for entry `O=C(Cc1ccc(O)nc1)N/N=C1\C(=O)Nc2ccc(C(=O)N3CCC(NC4CC4)CC3)c(Cl)c21` equals 6.24

The value of pIC50 measured for the compound COc1cc(Cl)c2c(c1Cl)/C(=N/NC(=O)C(C)c1ccc(O)cc1)C(=O)N2 (stereo not drawn) turned out to be 7.33

For `O=C(Cc1cnc(=O)[nH]c1)N/N=C1\C(=O)Nc2ccccc21` the compound record lists pIC50 as 4.90

In plain terms, `O=C(Cc1ccncc1)N/N=C1\C(=O)Nc2c(Cl)ccc(Cl)c21` has a documented pIC50 of 7.89

Reported pIC50 ( `COC(=O)c1cccc2c1/C(=N/NC(=O)Cc1ccc(O)cc1)C(=O)N2` ) = 6.27

====

molecular target: GST fusion protein containing the Met kinase domain (Homo sapiens, UniProt P08581); construct: Purified GST fusion protein containing the Met kinase domain, Sugen, Inc; test: MET Transphosphorylation Assay (ELISA, poly(Glu,Tyr) 4:1 substrate); conditions: met transphosphorylation of poly(glutamic acid:tyrosine 4:1) substrate; two values in a cell separated by '/'
IC50 under 80 nM gets Yes, anything at or over 80 nM gets No.

Does this compound meet the criterion IC50 < 80 nM? CCC(C(=O)N/N=C1\C(=O)Nc2c(Cl)ccc(Cl)c21)c1ccc(OC)cc1 (stereo not shown) [II-79] No

Is IC50 of O=C(Cc1ccc(O)cc1)N/N=C1\C(=O)Nc2ccc(Cl)c(Cl)c21 [II-33] strictly below 80 nM? Yes

Field: below-cutoff. Rule: recorded IC50 strictly less than 80 nM. Subject: COc1cc(CC(=O)N/N=C2\C(=O)Nc3ccccc32)ccc1O [II-40] No

Input O=C(Cc1ccc(Br)cc1)N/N=C1\C(=O)Nc2ccccc21 [II-34] ; condition: IC50 strictly below 80 nM. Does it hold? No

Determine if O=C(Cc1ccc(OCCN2CCCC2)cc1)N/N=C1\C(=O)Nc2ccccc21 [Example I-1] shows IC50 strictly lower than 80 nM. No

Field: below-cutoff. Rule: recorded IC50 strictly less than 80 nM. Subject: N#Cc1cc(CC(=O)N/N=C2\C(=O)Nc3c(Cl)ccc(Cl)c32)ccc1O [II-109] No

Dear reviewer, please state whether O=C(Cc1ccc(O)nc1)N/N=C1\C(=O)Nc2ccc(C(=O)N3CCC[C@@H]3CNC3CC3)c(Cl)c21 [Example I-45] has IC50 strictly beneath 80 nM. No

Dear colleague, could you confirm whether IC50 of CC(=O)Nc1ccc(CC(=O)N/N=C2\C(=O)Nc3ccccc32)cc1 [Example I-4] falls below 80 nM? Thanks. No

Is IC50 strictly under 80 nM for the entry COc1ccc(CC(=O)N/N=C2\C(=O)Nc3ccccc32)cc1OC [II-5] ? No

Report whether reported IC50 is lower than 80 nM (strictly) for O=C(Cc1ccc2c(c1)OCO2)N/N=C1\C(=O)Nc2ccccc21 [Example I-23] No

Decide: IC50 of Cc1ccc(C)c2c1NC(=O)/C2=N\NC(=O)C(C)c1ccc(O)cc1 (stereo not shown) [II-57] strictly below 80 nM? Yes

IC50 strictly < 80 nM for this compound? CC(C)C(C(=O)N/N=C1\C(=O)Nc2ccccc21)c1ccc(O)cc1 (stereo not shown) [II-68] No

Dear colleague, could you confirm whether IC50 of O=C(Cc1ccc(O)c(O)c1)N/N=C1\C(=O)Nc2ccccc21 [II-41] falls below 80 nM? Thanks. No

Field: below-cutoff. Rule: recorded IC50 strictly less than 80 nM. Subject: Cc1cccc2c1/C(=N/NC(=O)Cc1ccc(O)cc1)C(=O)N2 [II-47] Yes

# TODO verify IC50 < 80 nM strictly for this compound: COc1ccc(CC(=O)N/N=C2\C(=O)Nc3ccc(Br)cc32)cc1OC [II-16] No

# TODO verify IC50 < 80 nM strictly for this compound: COc1c(O)c2c(c(Cl)c1Cl)NC(=O)/C2=N\NC(=O)Cc1ccc(O)cc1 [II-97] No

Is it true that IC50 reported for O=C(Cc1ccc(O)c(Cl)c1)N/N=C1\C(=O)Nc2ccc(C(=O)O)c(Cl)c21 [Example I-37] is less than 80 nM? Yes

Dear reviewer, please state whether Cc1ccc(C)c2c1NC(=O)/C2=N\NC(=O)Cc1ccc(O)nc1 [II-50] has IC50 strictly beneath 80 nM. Yes

====

target: GST fusion protein containing the Met kinase domain (Homo sapiens, UniProt P08581); construct: Purified GST fusion protein containing the Met kinase domain, Sugen, Inc; assay: MET Transphosphorylation Assay (ELISA, poly(Glu,Tyr) 4:1 substrate); settings: met transphosphorylation of poly(glutamic acid:tyrosine 4:1) substrate; two values in a cell separated by '/'
Task for the reader: assign each of the following compounds its reported IC50.

Per the records, this compound ( CC(C)C(C(=O)N/N=C1\C(=O)Nc2c(Cl)ccc(Cl)c21)c1ccc(O)cc1 (centres unmarked) ) has IC50 equal to 170 nM

Recorded IC50 (compound `O=C1Nc2ccccc2/C1=N/NC(=O)C1Cc2ccccc2C1` ): > 20000 nM

The measured IC50 associated with `O=C(Cc1ccc(O)cc1)N/N=C1\C(=O)Nc2cccc(-c3ccc(F)cc3)c21` reads 890 nM

Given item COc1ccc(C(C)C(=O)N/N=C2\C(=O)Nc3ccccc32)cc1 (centres unmarked) , the value recorded as its IC50 is 230 nM

Lab note: `O=C(Cc1ccc(O)cc1)N/N=C1\C(=O)Nc2c(Br)cc(Cl)cc21` gave IC50 of 54 nM

// recorded IC50 for Cc1cc(CCN2CCCC2)c(C)c2c1NC(=O)/C2=N\NC(=O)C(C)c1ccc(F)cc1 (centres unmarked) : 980 nM

For `O=C(Cc1ccc(O)cc1)N/N=C1\C(=O)Nc2cccc(-c3cccc(F)c3)c21` the compound record lists IC50 as 500 nM

IC50 measured on `O=C(Cc1cccc(O)c1)N/N=C1\C(=O)Nc2ccccc21` = 1450 nM

Entry `O=C(Cc1ccncc1)N/N=C1\C(=O)Nc2ccccc21` ; IC50 = 3100 nM

response.value for CCN(CC)CCc1cc(C)c2c(c1C)/C(=N/NC(=O)C(C)c1ccc(F)cc1)C(=O)N2 (centres unmarked) (field: IC50) = 1050 nM

Entry `O=C(Cc1cnc(=O)[nH]c1)N/N=C1\C(=O)Nc2c(Cl)ccc(Cl)c21` ; IC50 = 3080 nM

The value of IC50 measured for the compound `COc1cc(CC(=O)N/N=C2\C(=O)Nc3c(Cl)ccc(Cl)c32)cc(OC)c1O` turned out to be > 20000 nM

Sure, the documented IC50 for `O=C(Cc1ccc(O)cc1)N/N=C1\C(=O)Nc2ccc(Br)c(-c3cccc(F)c3)c21` is 1060 nM

The measured IC50 associated with CC(C(=O)N/N=C1\C(=O)Nc2ccc(C(=O)N3CCC(NC4CC4)CC3)c(Cl)c21)c1ccc(O)cc1 (centres unmarked) reads 86 nM

What the record says about CC(C(=O)N/N=C1\C(=O)Nc2ccc(C(=O)N3CCC(NC4CC4)CC3)c(Cl)c21)c1ccc(F)cc1 (centres unmarked) : IC50 is 130 nM

Noted for `O=C(Cc1ccc(O)c(Cl)c1)N/N=C1\C(=O)Nc2ccccc21` : its IC50 reads 36 nM

IC50 recorded for this compound, `CN1CCN(S(=O)(=O)c2ccc3c(c2)/C(=N/NC(=O)Cc2ccc(O)cc2)C(=O)N3)CC1` , is 77 nM
